- system_tested: α2B receptor (Homo sapiens)
- Construct: host or cells: LM(tk-) cells, line L-NGC-α2B
- Sequence (P18089 1-450): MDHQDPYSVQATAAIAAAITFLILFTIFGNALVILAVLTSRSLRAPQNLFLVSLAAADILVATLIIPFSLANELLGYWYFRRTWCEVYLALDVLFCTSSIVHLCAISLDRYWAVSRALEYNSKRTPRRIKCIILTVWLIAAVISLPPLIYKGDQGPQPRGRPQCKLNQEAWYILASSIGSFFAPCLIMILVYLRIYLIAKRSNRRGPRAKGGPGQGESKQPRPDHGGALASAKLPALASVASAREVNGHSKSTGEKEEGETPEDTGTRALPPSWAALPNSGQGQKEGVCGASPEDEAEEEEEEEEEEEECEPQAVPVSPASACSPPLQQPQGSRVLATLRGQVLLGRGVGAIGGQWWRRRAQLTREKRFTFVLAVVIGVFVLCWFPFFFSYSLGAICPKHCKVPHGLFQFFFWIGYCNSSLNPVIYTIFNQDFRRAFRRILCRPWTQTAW
- test_summary: Competition binding, [3H]rauwolscine, human α2B receptor
- condition_set: pKi alpha-2 2b, [3H]rauwolscine, LM(tk-) cell line L-NGC-α2B; SEM and n in lines below
Counter-ions that a name gives are not always drawn.
attribute_measured: Ki (nM)
Note: unit nM is implicit; provide only the numeric part.

Tell me the measured Ki of CCC1=C(C(=O)NCCCN2CCC(c3ccccc3)(c3ccccc3)CC2)C(c2ccc([N+](=O)[O-])cc2)C(C(N)=O)=C(C)N1 (stereo not drawn) [Example 81, hydrochloride] , please.
162

Please answer likewise for CCC1=C(C(N)=O)C(c2ccc([N+](=O)[O-])cc2)C(C(=O)NCCCN2CCC(c3ccccc3)(c3ccccc3)CC2)=C(C)N1 (stereo not drawn)
603

Next record, please: CC1=C(C(=O)NCCCN2CCC(c3ccccc3)(c3ccccc3)CC2)C(c2ccc([N+](=O)[O-])cc2)c2c([nH]c(=O)[nH]c2=O)N1 (stereo not drawn)
437

* * *

- system_tested: α2A receptor (Homo sapiens, UniProt P08913)
- Construct: host or cells: LM(tk-) cells, line L-α2A
- Sequence (P08913 whole entry): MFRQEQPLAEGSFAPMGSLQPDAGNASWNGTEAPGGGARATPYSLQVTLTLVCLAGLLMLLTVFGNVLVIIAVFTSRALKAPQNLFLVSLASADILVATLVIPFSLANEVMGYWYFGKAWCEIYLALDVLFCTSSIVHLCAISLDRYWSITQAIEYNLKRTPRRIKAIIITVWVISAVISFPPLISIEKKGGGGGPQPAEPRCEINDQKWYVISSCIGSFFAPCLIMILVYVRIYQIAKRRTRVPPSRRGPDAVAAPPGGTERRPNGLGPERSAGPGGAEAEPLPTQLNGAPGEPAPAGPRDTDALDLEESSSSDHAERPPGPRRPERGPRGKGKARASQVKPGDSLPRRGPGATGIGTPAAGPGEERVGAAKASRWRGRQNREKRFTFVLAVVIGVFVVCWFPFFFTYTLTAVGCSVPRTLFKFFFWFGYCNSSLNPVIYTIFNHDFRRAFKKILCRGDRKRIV
- test_summary: Competition binding, [3H]rauwolscine, human α2A receptor
Parameter pKi: see the listing below.
Reminder that pKi means the negative base-10 logarithm of the concentration expressed in mol/L.

Take a look at these entries with their results.
compound | system_tested | pKi
CCC1=C(C(N)=O)C(c2ccc([N+](=O)[O-])cc2)C(C(=O)NCCCN2CCC(C(=O)OC)(c3ccccc3)CC2)=C(CC)N1 (centres unmarked) | α2A receptor (Homo sapiens, UniProt P08913) | 5.26
COC(=O)C1=C(C)NC(C)=C(C(=O)NCCCN2CCC(c3ccccc3)(c3ccccc3)CC2)C1c1ccc(-c2ccccc2)cc1 (centres unmarked) | α2A receptor (Homo sapiens, UniProt P08913) | 5.42
COC(=O)C1=C(C)NC(C)=C(C(=O)NCCCN2CCC(c3ccccc3)(c3ccccc3)CC2)C1c1ccc(OC)cc1 (centres unmarked) | α2A receptor (Homo sapiens, UniProt P08913) | 5.68
COC(=O)C1=C(C)NC(C)=C(C(=O)NCCCN2CCC(c3ccccc3)(c3ccccc3)CC2)C1c1ccc(Cl)c(Cl)c1 (centres unmarked) | α2A receptor (Homo sapiens, UniProt P08913) | 6.04

What does the record list as pKi for COC(=O)C1=C(C)NC(C)=C(C(=O)NCCCN2CCC(c3ccccc3)(c3ccccc3)CC2)C1c1ccc(Cl)c([N+](=O)[O-])c1 (centres unmarked) ?
5.95

// provenance: patent US6608086B2
